# Kd listing for each entry below
- Target or test system: HLA-A*26:01
- Measurement notes: IEDB peptide-MHC binding, purified MHC/direct/fluorescence; filed as Kd, often an IC50 or EC50 that approximates it; bounds were set here for any values at or beyond the usual limits of such assays
- Test context: source organism: Giardia lamblia ATCC 50803
Value kind: Kd

TTIEDILPK ... 0.478 µM
LLIQGLKTV ... ≥ 20 µM
FMKVKFEAL ... ≥ 20 µM
AEFPVGSTA ... ≥ 20 µM
PPPPLQHPI ... ≥ 20 µM
RHIAIQVCY ... ≥ 20 µM

---

- Target or test system: HLA-B*51:01
- Measurement notes: IEDB peptide-MHC binding, purified MHC/competitive/radioactivity; filed as Kd, often an IC50 or EC50 that approximates it; bounds were set here for any values at or beyond the usual limits of such assays
- Test context: source organism: Triticum aestivum
Value kind: Kd

QPLSQVSF ... 12600 nM
LPAMCNVYI ... 272 nM
QPYLQLQPFL ... 150 nM
LPYPQPQL ... 32.3 nM

Cited source for all entries: the Immune Epitope Database (IEDB)
